Measured logP accompanies every entry in the list below.
Write the value as a bare number.

Some entries whose results are on file:
Compound: CC(C1CC1)C(O)(Cn1cncn1)c1ccc(Cl)cc1 (configuration not stated)
logP: 2.99
--
Compound: Cn1cc(C(=O)Nc2cccc3c2[C@@H]2CC[C@H]3C2=C(Cl)Cl)c(C(F)F)n1
logP: 4.34
--
Compound: CC(C)Oc1cccc(NC(=O)c2ccccc2C(F)(F)F)c1
logP: 3.59
--
Compound: Cc1ccc(NC(=O)N(C)C)cc1Cl
logP: 2.43
--
Compound: Cc1cc(C2CC2)nc(Nc2ccccc2)n1
logP: 3.91
--
Compound: N#CN=C1SCCN1Cc1ccc(Cl)nc1
logP: 1.26

Qu. For the compound CCN1C(=O)C(=O)c2ccc(OC)cc2C1=O , give its measured logP value.
Ans. 1.4

Qu. For the compound CCCC(=O)c1ccccc1 , give its measured logP value.
Ans. 2.68

Qu. For the compound C[C@@H](Oc1ccc(Oc2ccc(C(F)(F)F)cn2)cc1)C(=O)O , give its measured logP value.
Ans. 3.21

Origin of values: the SangsterLogP compilation
